# Test system: SK-MEL-28 melanoma
# PROCEDURE DETAILS: NCI tumour cell line growth inhibition, 48 h
What TGI was measured for each of the following?

Before answering, review these 4 worked examples.
O=C(O)CP(=O)(O)O = > 100 µM
O=C1CC[C@H](c2ccc(O)c3c2C(=O)[C@@H]2O[C@@H]2C3=O)c2cccc(O)c21 = 3.62 µM
COC(=O)Cc1c(/C=C/C(C)(C)n2cnc(CCN3C(=O)CCC3=O)c2)[nH]c2ccccc12 = > 100 µM
Cc1cn([C@H]2C[C@@H]3[C@@H](COC(CCl)N3O)O2)c(=O)[nH]c1=O (stereo not given in full) = > 100 µM

Lab note: each compound below needs its TGI filled in.
1. CCOC(=O)N1CCN(c2nc(C)n(-c3ccccc3)c(=S)c2C#N)CC1
2. COc1ccc2c(c1)CCN1CCCc3ccc(OC)cc3C21 (stereo not given)
3. CC(=O)OC1CC2C(C)(C)C(=O)C=C[C@]2(C)C2CCC3(C)C(c4ccoc4)[C@@H](O)[C@H]4O[C@]43[C@]12C (stereo not given in full)
4. Cc1cc(O)c(C=NC(=S)c2ccccc2)c(=O)o1
5. Cc1c(-c2nnc(-c3ccc(F)cc3)o2)nnn1-c1ccnc2c(C(F)(F)F)cccc12

["> 100 µM", "> 100 µM", "40.5 µM", "> 100 µM", "74.1 µM"]

Lab note: each compound below needs its TGI filled in.
1. CC1=CC(=O)[C@@H](O)[C@]2(C)[C@H]3[C@@]4(O)OC[C@@]35[C@@H](C[C@@H]12)OC(=O)C(OC(=O)CC1=CCCC1)[C@H]5[C@@H](C)[C@H]4O (stereo not given in full)
2. CC[C@@H]1CC[C@@H]2[C@H](CC[C@]3(C)[C@@H](O)CC[C@@H]23)[C@H]1CO
3. O=C1C(=c2cc3c(c4ccccc24)=NC24CCCCC2C(c2ccccc2)C=C(c2ccccc2)N34)C(=O)c2ccccc21 (stereo not given)
4. C[C@@H](CO)C1=CC(C#C[Si](C)(C)C)N(C(=O)Oc2ccccc2)c2ccccc21 (stereo not given in full)
5. CCCCCNC(=O)c1c(O)[nH]c(=S)[nH]c1=O
6. CC(CO)(CBr)COC(=O)c1cc(Br)c(N)c(Br)c1 (stereo not given)
7. CCOC(=O)NC(=O)c1cn(CCCOC(=O)NCCCCCCNC(=O)OCCCn2cc(C(=O)NC(=O)OCC)c(=O)[nH]c2=O)c(=O)[nH]c1=O
8. CCOC(=O)c1c(Cl)c2c(n1Cc1cccc(OC)c1)-c1oncc1CC2

1: 1.25 µM; 2: > 100 µM; 3: > 100 µM; 4: 36.3 µM; 5: > 100 µM; 6: > 100 µM; 7: 88.9 µM; 8: > 100 µM

Lab note: each compound below needs its TGI filled in.
1. O=Nc1sc(=N\O)/c(=N/O)sc1NO
2. O=NN/C(=C1\Nc2ccc([N+](=O)[O-])cc2NC1=O)C(O)c1ccc([N+](=O)[O-])cc1 (stereo not given)
3. CC(=O)OC1Oc2cc(C)c(C)cc2-c2oc(=O)c(-c3ccc(F)cc3)cc21 (stereo not given)

1. > 100 µM
2. > 100 µM
3. 45.7 µM

====

# Tested on: MDA-MB-231 breast
# PROCEDURE DETAILS: NCI tumour cell line growth inhibition, 48 h
What TGI was measured for each of the following?

Cc1coc2c1C(=O)C(=O)c1c-2ccc2c1CCCC2(C)C = > 100 µM
Cc1ccc2ccc3ccc(C)nc3c2n1 = > 100 µM
NC1=CC(=O)c2nc3ccccc3c3ccnc1c23 = > 70.1 µM
COc1cc([C@@H]2c3cc4c(cc3[C@@H](OC3OC5COC(C)OC5C(OC(=O)CN5CCN(C)CC5)C3OC(=O)CN3CCN(C)CC3)C3COC(=O)[C@@H]32)OCO4)cc(OC)c1OC(=O)CN1CCN(C)CC1 (stereo not given in full) = > 100 µM

For the next question, use this molecule.
Name the recorded TGI for `COC(=O)Cc1c(/C=C/C(C)(C)n2cnc(CCN3C(=O)CCC3=O)c2)[nH]c2ccccc12` .
> 100 µM
